EXPERIMENTAL_TARGET: T1, rat angiotensin 2 type 1 receptor (rat, UniProt P25095 1-359)
T1 sequence (looked up): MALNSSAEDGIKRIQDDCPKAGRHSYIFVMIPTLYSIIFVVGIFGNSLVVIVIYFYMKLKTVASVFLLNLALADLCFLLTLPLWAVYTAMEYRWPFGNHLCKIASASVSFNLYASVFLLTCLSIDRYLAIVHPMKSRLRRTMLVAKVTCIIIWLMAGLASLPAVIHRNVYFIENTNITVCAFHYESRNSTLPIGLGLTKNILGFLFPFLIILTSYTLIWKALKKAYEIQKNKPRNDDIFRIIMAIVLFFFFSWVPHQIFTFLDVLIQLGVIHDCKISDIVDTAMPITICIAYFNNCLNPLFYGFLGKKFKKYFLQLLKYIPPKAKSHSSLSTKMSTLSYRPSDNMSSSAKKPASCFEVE
ASSAY_SUMMARY: cell-based or functional assay
Where no end group is shown, it is not given here. [ ]: non-standard residue; d: D form. Ac6c = NC1(C(=O)O)CCCCC1; Ac5c = NC1(C(=O)O)CCCC1; Sar = CNCC(=O)O
Entries and their IP1 G-protein assay pEC50
MEASURE: IP1 G-protein assay pEC50

INSERT INTO measurements (binder, measure, result) VALUES
  ('[Sar]RVYPHPL [SEQ ID NO: 5 (Sar-Arg-Val-Tyr-Pro-His-Pro-Leu)]', 'IP1 G-protein assay pEC50', '< 9.2'),
  ('[Sar]RVY[Ac5c]HPS [SEQ ID NO: 22 (Sar-Arg-Val-Tyr-cyPen-His-Pro-Ser)]', 'IP1 G-protein assay pEC50', '< 9.2'),
  ('[Sar]RVYPHPI [SEQ ID NO: 4 (Sar-Arg-Val-Tyr-Pro-His-Pro-Ile)]', 'IP1 G-protein assay pEC50', '> 9.2'),
  ('[Sar]RVY[Ac6c]HPP [SEQ ID NO: 39 (Sar-Arg-Val-Tyr-cyHex-His-Pro-Pro)]', 'IP1 G-protein assay pEC50', '< 9.2'),
  ('[Sar]RVY[Ac6c]HPL [SEQ ID NO: 12 (Sar-Arg-Val-Tyr-cyHex-His-Pro-Leu)]', 'IP1 G-protein assay pEC50', '< 9.2'),
  ('[Sar]RVY[Ac5c]HPT [SEQ ID NO: 21 (Sar-Arg-Val-Tyr-cyPen-His-Pro-Thr)]', 'IP1 G-protein assay pEC50', '< 9.2'),
  ('[Sar]RVY[Ac6c]HPV [SEQ ID NO: 13 (Sar-Arg-Val-Tyr-cyHex-His-Pro-Val)]', 'IP1 G-protein assay pEC50', '> 9.2');
